test.description: Selectivity index, ratio of cytotoxic CC50 for HEK293 cells to cytotoxic CC50 for human DU145 cells
Assay type: toxicity
condition.details: HEK293 cells versus DU145 cells, read-out: Selectivity Index
observable: selectivity ratio

1. CC(=O)O[C@@]12CO[C@@H]1C[C@H](O)[C@@]1(C)C(=O)[C@H](O)C3=C(C)[C@@H](OC(=O)[C@H](O)[C@@H](NC(=O)OC(C)(C)C)c4ccccc4)C[C@@](O)([C@@H](OC(=O)c4ccccc4)[C@H]21)C3(C)C [DOCETAXEL ANHYDROUS] | 2

---

Tested on: MDA-MB-231
test.description: Cytotoxic activity in human MDA-MB-231 cells by sulforhodamine B assay
Assay type: functional
observable: CC50 (µM)

1) C=C(C=O)[C@@H]1CC[C@]2(C(=O)O)CC[C@]3(C)[C@H](CC[C@@H]4[C@@]5(C)CC[C@@H](O)[C@](C)(CO)[C@@H]5CC[C@]43C)[C@@H]12 | 106
2) CC1(C)CC[C@]2(C(=O)O)CC[C@]3(C)C(=CC[C@@H]4[C@@]5(C)CC[C@H](O)C(C)(C)[C@@H]5CC[C@]43C)[C@@H]2C1 [OLEANOLIC_ACID] | 106
3) CC(=O)O[C@@]12CO[C@@H]1C[C@H](O)[C@@]1(C)C(=O)[C@H](O)C3=C(C)[C@@H](OC(=O)[C@H](O)[C@@H](NC(=O)OC(C)(C)C)c4ccccc4)C[C@@](O)([C@@H](OC(=O)c4ccccc4)[C@H]21)C3(C)C [DOCETAXEL ANHYDROUS] | 0.19
